Biological target: MGL (Rattus norvegicus, UniProt Q8R431)
Construct: one g rat brain was homogenized using a Polytron homogenizer; from tissue; host or cells: rat brain homogenate
Sequence (Q8R431 1-303): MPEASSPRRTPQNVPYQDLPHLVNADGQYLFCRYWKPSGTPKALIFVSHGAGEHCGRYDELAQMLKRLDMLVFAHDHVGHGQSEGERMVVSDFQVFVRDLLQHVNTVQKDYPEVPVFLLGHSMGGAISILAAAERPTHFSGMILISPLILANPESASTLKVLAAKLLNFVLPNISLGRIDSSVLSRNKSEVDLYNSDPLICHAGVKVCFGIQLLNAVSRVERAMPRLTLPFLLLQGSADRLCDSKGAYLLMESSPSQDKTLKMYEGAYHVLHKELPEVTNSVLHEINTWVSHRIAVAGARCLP
Assay: 2-AG accumulation assay in rat brain homogenate
Format: biochemical
Conditions: rat brain homogenate; compound 1 μM; 2-AG accumulation as percent of vehicle; read-out: Rat Brain 2AG % VehCntrl (%) @ 1 μM
Some molecules, each annotated with its measured 2-AG accumulation, % of vehicle control at 1 µM.
observationType: 2-AG accumulation, % of vehicle control at 1 µM (%)

> print(dat)
                             chemicalsmiles  unitinfo  experimentalresult
1  O=C(c1ccc2c(ccn2-c2cc(F)c(F)c(F)c2)c1)N1CC(N2CCN(C(=O)c3nccs3)CC2)C1         %                 798
2  O=C(c1ccc2c(c1)CCN(c1ccccn1)C2)N1CC(N2CCN(C(=O)c3nccs3)CC2)C1         %                 764
3  O=C(c1ccc2c(c1)Sc1ccccc1O2)N1CC(N2CCN(C(=O)c3cscn3)CC2)C1         %                 389
4  Cc1cc(C(=O)N2CCN(C3CN(C(=O)c4ccc(-c5ccccc5)cc4)C3)CC2)no1         %                 110

---

Recorded below: pIC50, system purified wild type MGL (wt-MGLL 6H-11-313) (Homo sapiens, UniProt Q99685).
pIC50: −log10 of the molar value.
observationType: pIC50

> print(dat)
                                   molecule  observationtype  experimentalresult
1  O=C(c1ccc(-c2ccc(C(F)(F)F)s2)cc1)N1CC(N2CCN(C(=O)c3cscn3)CC2)C1 [Cpd 1071]            pIC50                8.10
2  O=C(c1ccc2[nH]c(-c3ccccc3)nc2c1)N1CCN(C2CN(C(=O)c3ccccc3)C2)CC1 [Cpd 611]            pIC50                4.88
3  O=C(c1ccc(-c2cccc(C(F)(F)F)c2)cc1)N1CC(N2CCN(C(=O)c3ccno3)CC2)C1 [Cpd 1118]            pIC50                7.80
4  O=C(c1ccc2c(ccn2-c2ccc(F)cc2)c1)N1CC(N2CCN(C(=O)c3ccc(F)s3)CC2)C1 [Cpd 1427]            pIC50                8.22

---

Target: mutant MGL (Homo sapiens, UniProt Q99685, L169S/L176S)
Sequence (Q99685 whole entry L169S/L176S): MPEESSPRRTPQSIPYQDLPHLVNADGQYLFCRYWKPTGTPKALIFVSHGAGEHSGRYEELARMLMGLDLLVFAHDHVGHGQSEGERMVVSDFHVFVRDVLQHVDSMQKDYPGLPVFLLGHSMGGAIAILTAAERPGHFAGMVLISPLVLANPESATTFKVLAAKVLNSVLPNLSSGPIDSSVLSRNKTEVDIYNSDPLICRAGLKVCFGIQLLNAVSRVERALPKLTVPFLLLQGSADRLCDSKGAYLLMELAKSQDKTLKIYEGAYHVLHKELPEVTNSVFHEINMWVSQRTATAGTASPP
Experiment: MGL ThermoFluor assay - mutant
Assay type: binding
Settings: ThermoFluor thermal stability binding assay, read-out: MGL mutant ThermoFluor Kd
Some compounds, each annotated with its measured log10(Kd).
observationType: log10(Kd) (log10 of the value in nM)

> print(dat)
                                    compound                        experimentaltarget  experimentalresult
 1  O=C(c1cscn1)N1CCN(C2CN(C(=O)c3cccc4nc(-c5cccc(Cl)c5)oc34)C2)CC1 [Cpd 1238]  mutant MGL (Homo sapiens, UniProt Q99685, L169S/L176S)                2.10
 2  CC(=O)N1c2ccc(Br)cc2CCC1C(=O)N1CC(N2CCN(C(=O)c3nccs3)CC2)C1 (centres unmarked) [Cpd 376]  mutant MGL (Homo sapiens, UniProt Q99685, L169S/L176S)                3.85
 3  O=C(c1ccc(OCc2cccc(Cl)c2)cc1)N1CC(N2CCN(C(=O)c3cscn3)CC2)C1 [Cpd 960]  mutant MGL (Homo sapiens, UniProt Q99685, L169S/L176S)                1.56
 4  O=C(c1cscn1)N1CCN(C2CN(C(=O)c3cccc4nc(-c5ccc(F)cc5)oc34)C2)CC1 [Cpd 1282]  mutant MGL (Homo sapiens, UniProt Q99685, L169S/L176S)                2.30
 5  O=C(c1cc2cc(-c3ccccc3)ccc2o1)N1CC(N2CCN(C(=O)c3nccs3)CC2)C1 [Cpd 1342]  mutant MGL (Homo sapiens, UniProt Q99685, L169S/L176S)                2.13
 6  O=C(CCCc1ccccc1)N1CC(N2CCN(C(=O)c3nccs3)CC2)C1 [Cpd 1434]  mutant MGL (Homo sapiens, UniProt Q99685, L169S/L176S)                4.73
 7  COc1cc(C(=O)N2CC(N3CCN(C(=O)c4ccccc4)CC3)C2)ccc1-c1cccc(C(F)(F)F)c1 [Cpd 249]  mutant MGL (Homo sapiens, UniProt Q99685, L169S/L176S)                1.00
 8  O=C(c1ccccc1)N1CCN(C2CN(C(=O)c3ccc(OCc4ccncc4)cc3)C2)CC1 [Cpd 396]  mutant MGL (Homo sapiens, UniProt Q99685, L169S/L176S)                3.63
 9  O=C(c1ccc2c(c1)CCCN2S(=O)(=O)c1ccccc1)N1CC(N2CCN(C(=O)c3nccs3)CC2)C1 [Cpd 366]  mutant MGL (Homo sapiens, UniProt Q99685, L169S/L176S)                1.55
10  O=C(/C=C/c1ccccc1Br)N1CC(N2CCN(C(=O)c3nccs3)CC2)C1 [Cpd 296]  mutant MGL (Homo sapiens, UniProt Q99685, L169S/L176S)                2.68
11  O=C(c1ccc2nc(C(F)(F)F)sc2c1)N1CC(N2CCN(C(=O)c3nccs3)CC2)C1 [Cpd 718]  mutant MGL (Homo sapiens, UniProt Q99685, L169S/L176S)                1.86
12  O=C(c1ccc2c(c1)CCN(c1ccccn1)C2)N1CC(N2CCN(C(=O)c3nccs3)CC2)C1 [Cpd 661]  mutant MGL (Homo sapiens, UniProt Q99685, L169S/L176S)                1.67
13  O=C(c1ccc2c(c1)CCN(c1ncccn1)C2)N1CC(N2CCN(C(=O)c3nccs3)CC2)C1 [Cpd 668]  mutant MGL (Homo sapiens, UniProt Q99685, L169S/L176S)                1.40
14  CS(=O)(=O)N1CCCc2cc(C(=O)N3CC(N4CCN(C(=O)c5ccccc5)CC4)C3)ccc21 [Cpd 363]  mutant MGL (Homo sapiens, UniProt Q99685, L169S/L176S)                3.83
15  O=C(c1cscn1)N1CCN(C2CN(C(=O)c3ccc(-c4cccc(C(F)(F)F)c4)cc3Cl)C2)CC1 [Cpd 251]  mutant MGL (Homo sapiens, UniProt Q99685, L169S/L176S)                1.16
16  Cc1cc(C(=O)N2CC(N3CCN(C(=O)c4cscn4)CC3)C2)ccc1-c1ccc(Cl)c(C(F)(F)F)c1 [Cpd 258]  mutant MGL (Homo sapiens, UniProt Q99685, L169S/L176S)                0.52
17  Cc1cc(C(=O)N2CC(N3CCN(C(=O)c4cscn4)CC3)C2)ccc1-c1cccc(C(F)(F)F)c1 [Cpd 242]  mutant MGL (Homo sapiens, UniProt Q99685, L169S/L176S)                0.60
18  O=C(c1ccccc1)N1CCN(C2CN(C(=O)c3cccc4[nH]c(-c5ccc(F)cc5)nc34)C2)CC1 [Cpd 602]  mutant MGL (Homo sapiens, UniProt Q99685, L169S/L176S)                2.70
19  O=C(c1ccccc1)N1CCN(C2CN(C(=O)c3cc4cc(-c5ccccc5)ccc4o3)C2)CC1 [Cpd 605]  mutant MGL (Homo sapiens, UniProt Q99685, L169S/L176S)                3.28
20  Cc1cc(C(=O)N2CC(N3CCN(C(=O)c4cscn4)CC3)C2)ccc1-c1ccc(F)c(Cl)c1 [Cpd 257]  mutant MGL (Homo sapiens, UniProt Q99685, L169S/L176S)                0.52
21  O=C(c1ccc(-c2ccccc2)cc1)N1CCN(C2CN(C(=O)c3cscn3)C2)C2(CC2)C1 [Cpd 1286]  mutant MGL (Homo sapiens, UniProt Q99685, L169S/L176S)                1.51
22  O=C(c1ccccc1)N1CCN(C2CN(C(=O)c3ccc(-c4ccc(Cl)c(C(F)(F)F)c4)cc3Cl)C2)CC1 [Cpd 268]  mutant MGL (Homo sapiens, UniProt Q99685, L169S/L176S)                1.40
23  O=C(c1ccc2c(c1)CCN(C(=O)C1CCC(C(F)(F)F)CC1)C2)N1CC(N2CCN(C(=O)c3nccs3)CC2)C1 (centres unmarked) [Cpd 685]  mutant MGL (Homo sapiens, UniProt Q99685, L169S/L176S)                1.83
24  Cc1cc(C(=O)N2CC(N3CCN(C(=O)c4nccs4)CC3)C2)ccc1-c1cccc(C(F)(F)F)c1 [Cpd 241]  mutant MGL (Homo sapiens, UniProt Q99685, L169S/L176S)               -0.30
25  O=C(c1ccccc1)N1CCN(C2CN(C(=O)c3cccc4[nH]c(-c5cccc(F)c5)nc34)C2)CC1 [Cpd 609]  mutant MGL (Homo sapiens, UniProt Q99685, L169S/L176S)                3.00
26  O=C(C=Cc1ccc2ccccc2c1)N1CC(N2CCN(C(=O)c3nccs3)CC2)C1 [Cpd 297]  mutant MGL (Homo sapiens, UniProt Q99685, L169S/L176S)                2.52
27  Cc1c(C(=O)N2CC(N3CCN(C(=O)c4ccccc4)CC3)C2)sc2cc(F)ccc12 [Cpd 516]  mutant MGL (Homo sapiens, UniProt Q99685, L169S/L176S)                1.60
28  O=C(c1cscn1)N1CCN(C2CN(C(=O)c3cc(-c4ccccc4)n(-c4ccccc4)n3)C2)CC1 [Cpd 1261]  mutant MGL (Homo sapiens, UniProt Q99685, L169S/L176S)                2.92
29  Cc1c(C(=O)N2CC(N3CCN(C(=O)c4ccccc4)CC3)C2)sc2ccc(C(F)(F)F)cc12 [Cpd 504]  mutant MGL (Homo sapiens, UniProt Q99685, L169S/L176S)                1.38
30  O=C(c1cscn1)N1CCN(C2CN(C(=O)c3cc4cccc(C(F)(F)F)c4s3)C2)CC1 [Cpd 332]  mutant MGL (Homo sapiens, UniProt Q99685, L169S/L176S)                2.04
